Tested target: RAGE tail (Homo sapiens, UniProt Q15109)
Sequence (Q15109 364-404 limits assumed): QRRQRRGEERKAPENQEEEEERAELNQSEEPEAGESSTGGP
Quantity: Kd (nM)
Please give a number only; it is taken to be in nM.

Worked examples follow.
> print(dat)
                                   compound  quantity  value.observed
1  Cc1c(CC(O)CN2CCOCC2)c2ccc(F)cc2n1C (centres unmarked)        Kd              14
2  Cc1c(C)n(CC(CC#N)CN2CCOCC2)c2ccccc12 (centres unmarked)        Kd             4.3
3  Cc1c(C)n(CC(C#N)CN2CCCC(C(=O)O)C2)c2ccccc12 (centres unmarked)        Kd              12
4  Cc1c(CC(O)CN2CCOCC2)c2ccccc2n1C (centres unmarked)        Kd              20

Any idea what Kd came out for CC(=O)NC(CN1CCOCC1)Cn1c(C)c(C)c2ccccc21 (centres unmarked) on RAGE tail (Homo sapiens, UniProt Q15109)?
9

Any idea what Kd came out for CC(=O)NC(CN1CCOCC1)Cn1c(C)c(C)c2cc(F)ccc21 (centres unmarked) on RAGE tail (Homo sapiens, UniProt Q15109)?
9

Any idea what Kd came out for Cc1c(C)n(CC(O)CN2CCOCC2)c2cc(F)ccc12 (centres unmarked) on RAGE tail (Homo sapiens, UniProt Q15109)?
55

Any idea what Kd came out for Cc1c(C)n(CC(C#N)CN2CCCC(C(N)=O)C2)c2ccccc12 (centres unmarked) on RAGE tail (Homo sapiens, UniProt Q15109)?
2.6

Any idea what Kd came out for O=C(O)C1CCCN(CC(O)Cn2c3c(c4ccccc42)CCCC3)C1 (centres unmarked) on RAGE tail (Homo sapiens, UniProt Q15109)?
18

Any idea what Kd came out for Cc1c(CC(O)CN2CCOCC2)c2ccccc2n1C(C)C (centres unmarked) on RAGE tail (Homo sapiens, UniProt Q15109)?
11

Any idea what Kd came out for Cc1c(C)n(CC(C#N)CN2CCOCC2)c2ccccc12 (centres unmarked) on RAGE tail (Homo sapiens, UniProt Q15109)?
4
